Numbers sourced from patent US10906930B2.

molecular target: wild type hSTING (STING AA140-379) (Homo sapiens, UniProt Q86WV6, H232R); construct: DNA encoding amino acids 140-379 (amino acid numbering corresponding to Swiss Prot Q86WV6); 6xHIS (N, cleaved yes); SUMO (N, cleaved yes); made in house; host or cells: E. coli Rosetta2 (DE3); assay: DSF Tm shift with purified hSTING WT protein; type: binding; settings: 1 mg/mL purified STING AA140-379, ligand 1 mM
Sequence (Q86WV6 140-379 H232R): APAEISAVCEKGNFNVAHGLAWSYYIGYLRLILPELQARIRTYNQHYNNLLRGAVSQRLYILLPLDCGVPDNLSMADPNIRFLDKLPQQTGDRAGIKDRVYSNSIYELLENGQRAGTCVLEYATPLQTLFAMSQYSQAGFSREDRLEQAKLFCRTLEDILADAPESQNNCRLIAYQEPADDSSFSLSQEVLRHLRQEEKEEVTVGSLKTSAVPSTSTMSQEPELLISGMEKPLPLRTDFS
measurement_kind: hSTING Tm Shift WT (°C)
Please respond with the number in °C and leave the unit unwritten.

Solved entries (count: 3):
molecule	unit_label	hSTING Tm Shift WT
Nc1ncnc2c1ncn2[C@@H]1O[C@@H]2CO[P@@](=O)(S)O[C@@H]3[C@H](F)[C@@H](CO[P@](=O)(S)O[C@H]2[C@H]1F)O[C@H]3n1cnc2c(N)ncnc21 [Compound 5a]	°C	11.5
Nc1ncnc2c1ncn2[C@@H]1O[C@@H]2CO[P@@](=O)(S)O[C@@H]3[C@H](F)[C@@H](CO[P@@](=O)(S)O[C@H]2[C@H]1O)O[C@H]3n1cnc2c(N)ncnc21 [Compound 20]	°C	11.4
Nc1ncnc2c1ncn2[C@@H]1O[C@@H]2CO[P@@](=O)(S)O[C@@H]3[C@@H](F)[C@@H](CO[P@](=O)(S)O[C@H]2[C@H]1F)O[C@H]3n1cnc2c(N)ncnc21 [Compound 10a]	°C	7.0

### Prompt Which hSTING Tm Shift WT is reported for this molecule? Nc1nc2c(ncn2[C@@H]2O[C@@H]3CO[P@@](=O)(S)O[C@@H]4[C@H](F)[C@@H](CO[P@@](=O)(S)O[C@H]3[C@H]2F)O[C@H]4n2cnc3c(N)ncnc32)c(=O)[nH]1 [Compound 32]
### Response 13.4

### Prompt Please report the recorded hSTING Tm Shift WT for Nc1ncnc2c1ncn2[C@@H]1O[C@@H]2CO[P@@](=O)(S)O[C@@H]3C[C@@H](CO[P@@](=O)(S)O[C@H]2[C@H]1F)O[C@H]3n1cnc2c(N)ncnc21 [Compound 45] .
### Response 12.1
